- MEASURED ON: T1, human LILRB1 expressed on cells (human, UniProt Q8NHL6 24-650)
- T1 construct: In 293T cells it was expressed from pCMV3-LILRB1-GFP; also called CHO-LILRB1; Jurkat-LILRB1
- EXPERIMENTAL PROTOCOL: flow cytometry, CHO-LILRB1 cells
OBSERVABLE: EC50

# lookup: EC50 of D2M002-026 (antibody, V domains shown, Hit; also called clone #26) VH: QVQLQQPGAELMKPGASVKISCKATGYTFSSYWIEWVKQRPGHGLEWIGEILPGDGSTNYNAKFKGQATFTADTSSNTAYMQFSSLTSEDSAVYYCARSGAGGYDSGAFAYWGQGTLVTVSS VL: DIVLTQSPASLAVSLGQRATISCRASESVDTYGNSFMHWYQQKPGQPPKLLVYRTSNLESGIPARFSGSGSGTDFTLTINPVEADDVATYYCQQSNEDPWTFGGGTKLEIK
0.818 µg/mL

One more binder: #27 (antibody, human IgG1, V domains shown, also called D2M002-027) VH: EVQLQQSGAELMKPGASVKISCKITGYTFSSYWIEWVKQRPGHDLEWIGEILPGSGSTNYNEKFKGKASFTADTSSNTAYMQLNSLTSEDSAVYYCARSGAGGYDSGAFAYWGQGTLVTVSA VL: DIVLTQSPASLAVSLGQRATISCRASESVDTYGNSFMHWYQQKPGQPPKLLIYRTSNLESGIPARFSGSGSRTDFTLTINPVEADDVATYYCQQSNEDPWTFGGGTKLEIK
1.02 µg/mL

One more binder: #21 (antibody, human IgG1, V domains shown, also called D2M002-021) VH: QVQLQQSGAELMKPGASVKISCKATGSTFSSYWIEWVKQRPGHGLEWIGEILPGSGSTNYNEKFKGKATFTADTSSNTAYMQLSSLTSEDSAVYYCARSGAGGYDSGAFAYWGQGTLVTVSA VL: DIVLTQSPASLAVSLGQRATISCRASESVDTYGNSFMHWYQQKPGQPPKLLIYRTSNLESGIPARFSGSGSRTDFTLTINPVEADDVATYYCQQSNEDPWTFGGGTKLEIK
2.35 µg/mL
